system: L1210 leukemia ip in BDF1 mice, survival T/C; test: NCI In Vivo Anticancer Drug Screen. Data for tumor model L1210 Leukemia (intraperitoneal) in B6D2F1 (BDF1) mice; conditions: endpoint: mean survival time; dose: 100.0 mg/kg/injection; schedule: Q04DX003 (ip); vehicle: Klucel (hydroxypropylcellulose) (HPC); higher = longer survival
Inconclusive results and toxic doses are left out.
Entries and their T/C

# Compound, Assay target, Recorded measurement
records = [
    ("O=C(COc1ccc(Cl)c(Cl)c1)Nc1ccc[n+](Cc2ccc(Cl)c(Cl)c2)c1", "L1210 leukemia ip in BDF1 mice, survival T/C", "90 % of control"),
    ("COc1ccc(CC(CO)C(CO)Cc2ccc(OC)c(OC)c2)cc1OC (stereo unspecified)", "L1210 leukemia ip in BDF1 mice, survival T/C", "98 % of control"),
    ("Brc1ncc2ccccc2c1Br", "L1210 leukemia ip in BDF1 mice, survival T/C", "108 % of control"),
    ("COc1ccc(C(C#N)N2CCCCC2)cc1 (stereo unspecified)", "L1210 leukemia ip in BDF1 mice, survival T/C", "95 % of control"),
    ("CCCCCCCCCCCCCCCCCCNC(=S)N(C)C", "L1210 leukemia ip in BDF1 mice, survival T/C", "89 % of control"),
]

Next, consider the following compound.
Quick check: T/C of "Nc1nc(-c2ccccc2N=NN2CCCCC2)nc2ccccc12" ? 109 % of control
